# TGT: Paired box protein Pax-2 [1-81] (Human, UniProt Q02962)
# Construct: 1-81
# Sequence (Q02962 1-81): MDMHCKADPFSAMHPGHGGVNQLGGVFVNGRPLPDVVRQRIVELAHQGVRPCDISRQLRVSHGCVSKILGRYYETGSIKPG
# TEST_DESCRIPTION: Biolayer Interferometry Binding Assay
VALUE_KIND: pKd
By convention, pKd is the negative base-10 log of a molar concentration.

Challenge: Note pKd for the molecule shown: COc1ccccc1C(=O)Nc1ccc(C(=O)Nc2ccccc2C(=O)O)cc1
Response given: 5.82
